Could you please report measured inhibition zone (IZ) for the items listed next?
Test system: Talaromyces marneffei
Experiment: Antifungal activity against Penicillium marneffei; also: test concentration or dose not given here
Assay type: functional

For the compound CSc1ccc(OCc2nnc3sc(-c4ccccc4)nn23)cc1 , the measured inhibition zone (IZ) on Talaromyces marneffei was 16 mm

For the compound CCSc1ccc(OCc2nnc3sc(-c4ccccc4N)nn23)cc1 , the measured inhibition zone (IZ) on Talaromyces marneffei was <10 mm

For the compound CCSc1ccc(OCc2nnc3n2N=C(c2ccc(Cl)cc2Cl)CS3)cc1 , the measured inhibition zone (IZ) on Talaromyces marneffei was <10 mm

For the compound CS(=O)(=O)c1ccc(OCc2nnc3n2N=C(c2ccc(O)c(C(N)=O)c2)CS3)cc1 , the measured inhibition zone (IZ) on Talaromyces marneffei was <10 mm

For the compound CCSc1ccc(OCc2nnc3sc(-c4ccccc4O)nn23)cc1 , the measured inhibition zone (IZ) on Talaromyces marneffei was <10 mm

For the compound CS(=O)(=O)c1ccc(OCc2nnc3n2N=C(c2ccc(Cl)cc2Cl)CS3)cc1 , the measured inhibition zone (IZ) on Talaromyces marneffei was <10 mm

For the compound CS(=O)(=O)c1ccc(OCc2nnc3sc(-c4ccccc4Cl)nn23)cc1 , the measured inhibition zone (IZ) on Talaromyces marneffei was <10 mm

For the compound COc1ccc(-c2nn3c(COc4ccc(SC)cc4)nnc3s2)cc1 , the measured inhibition zone (IZ) on Talaromyces marneffei was 16 mm

For the compound CSc1ccc(OCc2nnc3sc(Cc4ccccc4)nn23)cc1 , the measured inhibition zone (IZ) on Talaromyces marneffei was 16 mm

For the compound CS(=O)(=O)c1ccc(OCc2nnc3n2N=C(c2ccc(Cl)cc2)CS3)cc1 , the measured inhibition zone (IZ) on Talaromyces marneffei was <10 mm

For the compound CS(=O)(=O)c1ccc(OCc2nnc3sc(-c4ccccc4)nn23)cc1 , the measured inhibition zone (IZ) on Talaromyces marneffei was <10 mm
